EXPERIMENT DESCRIPTION: in vivo
CONDITION PARAMETERS: Sprague-Dawley, rat, po, 10 mg/kg
MEASURED ENDPOINT: Cmax (nM)
Give bare numbers, in nM.

Query: Cmax; subject: Nc1nc2c(c(N3CCNCC3)n1)CCC1=C2[C@@H]2CCCC[C@@H]2O1 (relative stereo) 300

---

TARGET UNDER TEST: Substance-K receptor (Homo sapiens, UniProt P21452)
Sequence (P21452 whole entry): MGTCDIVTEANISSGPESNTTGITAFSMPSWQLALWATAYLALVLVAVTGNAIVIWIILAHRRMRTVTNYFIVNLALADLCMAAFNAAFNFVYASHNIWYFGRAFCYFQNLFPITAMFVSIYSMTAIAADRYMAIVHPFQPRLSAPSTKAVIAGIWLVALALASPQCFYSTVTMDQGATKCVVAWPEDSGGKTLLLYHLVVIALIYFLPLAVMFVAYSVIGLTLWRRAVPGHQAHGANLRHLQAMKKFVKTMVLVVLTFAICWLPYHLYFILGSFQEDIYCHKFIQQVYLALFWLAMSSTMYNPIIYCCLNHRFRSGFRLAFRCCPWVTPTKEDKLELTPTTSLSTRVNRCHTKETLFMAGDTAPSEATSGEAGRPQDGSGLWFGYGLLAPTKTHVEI
MEASURED ENDPOINT: pKi
Numbers only, as −log10 of the molar value.

Form entry - test system: Substance-K receptor (Homo sapiens, UniProt P21452); read-out: pKi; compound: Nc1nc2c(c(N3CCNCC3)n1)CCC1=C2[C@@H]2CCCC[C@@H]2O1 (relative stereo) 8.51

---

TARGET UNDER TEST: Muscarinic acetylcholine receptor M5 (Homo sapiens, UniProt P08912)
Sequence (P08912 whole entry): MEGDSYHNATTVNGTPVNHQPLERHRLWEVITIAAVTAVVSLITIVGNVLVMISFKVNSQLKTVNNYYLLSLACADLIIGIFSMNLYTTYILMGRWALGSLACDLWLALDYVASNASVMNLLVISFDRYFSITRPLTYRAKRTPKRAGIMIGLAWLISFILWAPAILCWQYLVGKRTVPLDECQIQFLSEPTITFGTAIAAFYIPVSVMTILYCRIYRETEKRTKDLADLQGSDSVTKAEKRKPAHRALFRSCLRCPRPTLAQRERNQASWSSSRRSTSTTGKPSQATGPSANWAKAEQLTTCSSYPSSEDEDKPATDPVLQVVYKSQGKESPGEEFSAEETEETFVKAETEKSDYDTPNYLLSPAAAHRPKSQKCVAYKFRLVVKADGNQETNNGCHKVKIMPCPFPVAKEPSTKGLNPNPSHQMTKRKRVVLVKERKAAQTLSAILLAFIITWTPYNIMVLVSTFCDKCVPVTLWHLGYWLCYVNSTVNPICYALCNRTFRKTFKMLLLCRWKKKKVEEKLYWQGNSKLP
MEASURED ENDPOINT: pKi
Numbers only, as −log10 of the molar value.

pKi for C[N+]1(C)CCC(OC(=O)C(c2ccccc2)c2ccccc2)CC1 ? 9.38

---

EXPERIMENT DESCRIPTION: in vivo
CONDITION PARAMETERS: Sprague-Dawley, rat, po, 10 mg/kg
MEASURED ENDPOINT: bioavailability (%)
Answers are plain numbers, in %.

Field request: bioavailability | item: Nc1nc2c(c(N3CCNCC3)n1)CCC1=C2[C@@H]2CCCC[C@@H]2O1 (relative stereo) 26

---

EXPERIMENT DESCRIPTION: in vivo
CONDITION PARAMETERS: Sprague-Dawley, rat, ip, 10 mg/kg
MEASURED ENDPOINT: Cmax (nM)
Give bare numbers, in nM.

Please report the recorded Cmax for Nc1nc2c(c(N3CCNCC3)n1)CCC1=C2[C@@H]2CCCC[C@@H]2O1 (relative stereo) . 1730

---

TARGET UNDER TEST: 5-hydroxytryptamine receptor 2B (Homo sapiens)
Sequence (P41595 whole entry): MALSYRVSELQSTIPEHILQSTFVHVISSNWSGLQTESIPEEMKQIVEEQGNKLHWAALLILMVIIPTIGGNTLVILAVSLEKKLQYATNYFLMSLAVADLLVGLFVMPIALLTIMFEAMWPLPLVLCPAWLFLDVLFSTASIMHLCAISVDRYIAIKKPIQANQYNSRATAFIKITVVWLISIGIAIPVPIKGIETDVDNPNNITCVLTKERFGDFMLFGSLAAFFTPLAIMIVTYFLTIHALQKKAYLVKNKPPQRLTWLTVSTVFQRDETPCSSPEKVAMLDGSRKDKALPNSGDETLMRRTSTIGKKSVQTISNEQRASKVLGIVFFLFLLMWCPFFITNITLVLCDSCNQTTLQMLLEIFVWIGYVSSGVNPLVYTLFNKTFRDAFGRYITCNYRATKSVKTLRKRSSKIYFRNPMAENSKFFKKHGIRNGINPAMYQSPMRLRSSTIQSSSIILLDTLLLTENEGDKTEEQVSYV
MEASURED ENDPOINT: pKi
Numbers only, as −log10 of the molar value.

Query (compound): COc1cc(CC(C)N)c(OC)cc1I (racemic) ; field requested: pKi 8.46

---

EXPERIMENT DESCRIPTION: in vivo
CONDITION PARAMETERS: Sprague-Dawley, rat, po, 10 mg/kg
MEASURED ENDPOINT: Tmax (h)
Give bare numbers, in h.

Tmax lookup needed for Nc1nc2c(c(N3CCNCC3)n1)CCC1=C2[C@@H]2CCCC[C@@H]2O1 (relative stereo) , thanks. 1.5

---

TARGET UNDER TEST: Thromboxane A2 receptor (Homo sapiens, UniProt P21731)
Sequence (P21731 whole entry): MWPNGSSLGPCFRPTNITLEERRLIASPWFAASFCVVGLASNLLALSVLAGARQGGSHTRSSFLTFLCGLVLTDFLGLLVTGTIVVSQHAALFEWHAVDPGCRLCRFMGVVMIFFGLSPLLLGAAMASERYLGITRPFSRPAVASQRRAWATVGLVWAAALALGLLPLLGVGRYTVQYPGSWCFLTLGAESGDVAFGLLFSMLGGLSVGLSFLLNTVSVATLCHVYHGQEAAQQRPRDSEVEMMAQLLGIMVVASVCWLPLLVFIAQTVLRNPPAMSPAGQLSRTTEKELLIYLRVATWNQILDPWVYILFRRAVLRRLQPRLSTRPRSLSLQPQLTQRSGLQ
MEASURED ENDPOINT: pKi
Give bare numbers, as −log10 of the molar value.

API: value(readout= pKi, system= Thromboxane A2 receptor (Homo sapiens, UniProt P21731), query= CCCCC[C@H](O)/C=C/[C@H]1C2COC(C2)[C@@H]1C/C=C\CCCC(=O)O (stereo partly specified) ) 7.80
